# test_system: ELIC (Dickeya chrysanthemi, UniProt P0C7B7)
# experiment_summary: cell-based
# Type: cell-based, Erwinia chrysanthemi
parameter: inhibition of ELIC (yes/no)

O=[N+]([O-])NC1=NCCN1Cc1ccc(Cl)nc1 [Imidaclopride]: inhibiting neither
Oc1ccc2[nH]ccc2c1 [5-hydroxyindole]: inhibiting neither
Cc1cccc(C)c1N=C([O-])C[N+](C)(C)C.Cl: inhibiting neither

---

Quick reference: nH of the listed items.
# test_system: ELIC (Dickeya chrysanthemi, UniProt P0C7B7)
# experiment_summary: cell-based
# Type: cell-based, Erwinia chrysanthemi

// known answers, use as guide
N#Cc1nn(-c2c(Cl)cc(C(F)(F)F)cc2Cl)c(N)c1[S+]([O-])C(F)(F)F (stereo not shown) [Fipronil]: 1.8 ± 0.4
O=S1OC[C@@H]2[C@H](CO1)[C@@]1(Cl)C(Cl)=C(Cl)[C@]2(Cl)C1(Cl)Cl (stereo partly drawn) [α-endosulfan]: 0.7 ± 0.2
CCCC(C(=O)OCCN(CC)CC)(c1ccccc1)c1ccccc1 [Proadifen]: 2.9 ± 0.6
ClC1=C(Cl)[C@]2(Cl)[C@@H]3[C@@H]4C[C@@H]([C@H]5O[C@@H]45)[C@@H]3[C@@]1(Cl)C2(Cl)Cl [Dieldrin]: 1.1 ± 0.1

Record summary for CN(C)CCCN1c2ccccc2Sc2ccc(Cl)cc21 [Chlorpromazine] : reported nH = 1.2 ± 0.4

Record summary for CC(N)C12CC3CC(CC(C3)C1)C2 (stereo not shown) [Rimantadine] : reported nH = 1.0 ± 0.2

Record summary for CC(=O)[C@H]1CC[C@H]2[C@@H]3CCC4=CC(=O)CC[C@]4(C)[C@H]3CC[C@]12C [Progesterone] : reported nH = 1.8 ± 0.58

---

# test_system: ELIC (Dickeya chrysanthemi, UniProt P0C7B7, INS163G)
# Construct: expressed in transfected cells; host or cells: Xenopus laevis oocytes injected with cRNA
# experiment_summary: cell-based
# Format: cell-based, Erwinia chrysanthemi
# test_parameters: 10 mM
parameter: effect on ELIC (agonist test)

O=C(O)CCC(=O)C(=O)O [α-ketoglutarate]: did not activate ELIC
N[C@@H](CCC(=O)O)C(=O)O [L-glutamate]: did not activate ELIC
O=C(O)CCC(=O)O: did not activate ELIC

---

# test_system: ELIC (Dickeya chrysanthemi, UniProt P0C7B7)
# experiment_summary: cell-based
# Format: cell-based, Erwinia chrysanthemi
# test_parameters: IC50
pIC50: −log10 of the molar value.
Decision: pIC50 compared against 4; not below it gives met, below it gives not met.

Record excerpt, results attached:
N#Cc1nn(-c2c(Cl)cc(C(F)(F)F)cc2Cl)c(N)c1[S+]([O-])C(F)(F)F (centres unmarked): not met
ClC1=C(Cl)[C@]2(Cl)[C@@H]3[C@@H]4C[C@@H]([C@H]5O[C@@H]45)[C@@H]3[C@@]1(Cl)C2(Cl)Cl: met
CC(=O)[C@H]1CC[C@H]2[C@@H]3CCC4=CC(=O)CC[C@]4(C)[C@H]3CC[C@]12C: not met
O=S1OC[C@@H]2[C@H](CO1)[C@@]1(Cl)C(Cl)=C(Cl)[C@]2(Cl)C1(Cl)Cl (stereo partly drawn) [α-endosulfan]: met
CCCC(C(=O)OCCN(CC)CC)(c1ccccc1)c1ccccc1: met

Item CC(N)C12CC3CC(CC(C3)C1)C2 (centres unmarked) with pIC50 of 4 or above?
met

Item NC12CC3CC(CC(C3)C1)C2 with pIC50 of 4 or above?
not met

Item CN(C)CCCN1c2ccccc2Sc2ccc(Cl)cc21 with pIC50 of 4 or above?
not met
